B1: SNAP91 (parent)
chain: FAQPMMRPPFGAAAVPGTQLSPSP

- Variants of: B1
- assay.comment: protein stability index of a GFP-peptide fusion (GPS, HEK-293T) (PSI 1-6); higher = more stable;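 note: lentivirally expressed fusions sorted by FACS into six bins by GFP to DsRed ratio, PSI derived from sequencing read proportions per bin multiplied by bin number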
- setup.conditions: c terminus: a fixed tail appended
Entry flag: Met if protein stability index reaches 3; Not met if it does not.

>>> df
    alteration    group
 0        T18W  Not met
 1        A14C  Not met
 2        F10R      Met
 3        Q19I  Not met
 4        P24Q      Met
 5        P16L  Not met
 6         Q3K      Met
 7         P4K  Not met
 8        A13Y  Not met
 9        L20F  Not met
10        S21L  Not met
11        Q19T  Not met
12        P16G  Not met
13        S21I      Met
14        P16F  Not met
15        P24T      Met
16         P9W  Not met
17        Q19L  Not met
18        A13H      Met
19        V15I  Not met
